Test system: T-47D spheroids with HUVEC/MSC, viability
Test: Anticancer human tumor T-47D cell line growth inhibition [PI3K];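 further: spheroids exposed to agents for seven days before reading; percent of DMSO vehicle control luminescence so 100% = untreated growth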
Condition Info: second compound 0.0316 µM; first compound 0.000316 µM; hits give low values
Quick reference: viability, T/C of the listed items.

Cn1ncnc1[C@H]1c2n[nH]c(=O)c3cc(F)cc(c23)N[C@@H]1c1ccc(F)cc1 + CC(Nc1ncnc2nc[nH]c12)c1cc2cccc(Cl)c2c(=O)n1-c1ccccc1 = 86.8%
Cn1ncnc1[C@H]1c2n[nH]c(=O)c3cc(F)cc(c23)N[C@@H]1c1ccc(F)cc1 + CC(Nc1ccc2c(c1)OCCn1cc(N3C(=O)OCC3C(F)F)nc1-2)C(N)=O = 108%
Cn1ncnc1[C@H]1c2n[nH]c(=O)c3cc(F)cc(c23)N[C@@H]1c1ccc(F)cc1 + COc1c(OCCCN2CCOCC2)ccc2c3n(c(=NC(=O)c4cnc(N)nc4)nc12)CCN3 = 72.9%

Per the records, this compound ( Cn1ncnc1[C@H]1c2n[nH]c(=O)c3cc(F)cc(c23)N[C@@H]1c1ccc(F)cc1 + Cc1nc(NC(=O)N2CCCC2C(N)=O)sc1-c1ccnc(C(C)(C)C(F)(F)F)c1 ) has viability, T/C equal to 105%

Per the records, this compound ( CC(=O)c1c(C)c2cnc(Nc3ccc(N4CCNCC4)cn3)nc2n(C2CCCC2)c1=O + COc1c(OCCCN2CCOCC2)ccc2c3n(c(=NC(=O)c4cnc(N)nc4)nc12)CCN3 ) has viability, T/C equal to 71.3%

Per the records, this compound ( CC(C)n1nc(-c2ccc3oc(N)nc3c2)c2c(N)ncnc21 + COc1c(OCCCN2CCOCC2)ccc2c3n(c(=NC(=O)c4cnc(N)nc4)nc12)CCN3 ) has viability, T/C equal to 80.9%

Per the records, this compound ( CC(C)n1nc(-c2ccc3oc(N)nc3c2)c2c(N)ncnc21 + CC(Nc1ccc2c(c1)OCCn1cc(N3C(=O)OCC3C(F)F)nc1-2)C(N)=O ) has viability, T/C equal to 94.6%

Per the records, this compound ( CC(C)n1nc(-c2ccc3oc(N)nc3c2)c2c(N)ncnc21 + CC(Nc1ncnc2nc[nH]c12)c1cc2cccc(Cl)c2c(=O)n1-c1ccccc1 ) has viability, T/C equal to 116%

Per the records, this compound ( CC(=O)c1c(C)c2cnc(Nc3ccc(N4CCNCC4)cn3)nc2n(C2CCCC2)c1=O + CC(Nc1ccc2c(c1)OCCn1cc(N3C(=O)OCC3C(F)F)nc1-2)C(N)=O ) has viability, T/C equal to 70.1%

Per the records, this compound ( CC(=O)c1c(C)c2cnc(Nc3ccc(N4CCNCC4)cn3)nc2n(C2CCCC2)c1=O + CC(Nc1ncnc2nc[nH]c12)c1cc2cccc(Cl)c2c(=O)n1-c1ccccc1 ) has viability, T/C equal to 96%

Per the records, this compound ( CC(=O)c1c(C)c2cnc(Nc3ccc(N4CCNCC4)cn3)nc2n(C2CCCC2)c1=O + Cc1nc(NC(=O)N2CCCC2C(N)=O)sc1-c1ccnc(C(C)(C)C(F)(F)F)c1 ) has viability, T/C equal to 109%

Per the records, this compound ( CC(C)n1nc(-c2ccc3oc(N)nc3c2)c2c(N)ncnc21 + Cc1nc(NC(=O)N2CCCC2C(N)=O)sc1-c1ccnc(C(C)(C)C(F)(F)F)c1 ) has viability, T/C equal to 106%
